# Test system: HSV-1
# test name: HSV Antiviral (ELISA) assay
# Assay type: cell-based
# reported conditions: HSV-1 in Vero cells
Answer each item with its documented IC50 (ug/ml) HSV.

- molecule: "O=C(Nc1ccc(NC(=S)NCCc2cccc(I)c2)cc1)c1csnn1 [Example 768]"
  IC50 (ug/ml) HSV: ">10 µg/mL"

// for each molecule below, give its IC50 (ug/ml) HSV
1. COc1cc(OC)c(NC(=S)Nc2ccc(NC(=O)c3snnc3-c3ccoc3)cc2)cc1Cl [Example 288]
2. Nc1c(Cl)cccc1NC(=S)Nc1ccc(NC(=O)c2ccco2)cc1 [Example 446]
3. CN(C)c1cc(CCNC(=S)Nc2ccc(NC(=O)c3csnn3)cc2)cc(C(F)(F)F)c1 [Example 674]
4. CN1CCN(c2cc(NC(=S)Nc3ccc(NC(=O)c4csnn4)cc3)cc(C(F)(F)F)c2)CC1 [Example 558]

Ans:
[">10 µg/mL", "10 µg/mL", ">10 µg/mL", "7 µg/mL"]

###

# Tested on: HSV-1
# test name: HSV Antiviral (ELISA) assay
# Assay type: cell-based
# reported conditions: HSV-1 in Vero cells
measured endpoint: IC50 (ug/ml) HSV

- compound: "O=C(Nc1ccc(NC(=S)NCCOc2ccc(Br)cc2)cc1)c1csnn1 [Example 693]"
  IC50 (ug/ml) HSV: ">10 µg/mL"

// for each compound below, give its IC50 (ug/ml) HSV
1. CN(c1ccc(NC(=S)Nc2ccc(NC(=O)c3ccco3)cc2)cc1Cl)C1CCN(Cc2ccccc2)C1 (centres unmarked) [Example 331]
2. CN(C)c1ccc(CNC(=S)Nc2ccc(NC(=O)c3csnn3)cc2)cc1C(F)(F)F [Example 602]
3. CC(NC(=S)Nc1ccc(NC(=O)c2ccco2)cc1)c1ccccc1 (centres unmarked) [Example 590]
4. O=C(Nc1ccc(NC(=S)NCCOc2cc(Cl)cc(Cl)c2)cc1)c1csnn1 [Example 688]
5. O=C(Nc1ccc(NC(=S)Nc2ccc(Cl)c(Cl)c2)cc1)c1cocn1 [Example 699]

Ans:
1.8 µg/mL
>10 µg/mL
>10 µg/mL
>10 µg/mL
>10 µg/mL

// for each compound below, give its IC50 (ug/ml) HSV
1. CC(NC(=S)Nc1ccc(NC(=O)c2ccc3ccccc3n2)cc1)c1ccc(F)cc1 (centres unmarked) [Example 796]
2. CN(c1ccc(NC(=S)Nc2ccc(NC(=O)c3ccccn3)cc2)cc1Cl)C1CCCCC1 [Example 249]

Ans:
[">10 µg/mL", ">10 µg/mL"]

###

# System: HSV-1
# test name: HSV Antiviral (ELISA) assay
# Format: cell-based
# reported conditions: HSV-1 in Vero cells
measured endpoint: IC50 (ug/ml) HSV

- compound: "O=C(Nc1ccc(NC(=S)NCCc2cccc(Cl)c2)cc1)c1csnn1"
  measured endpoint: "IC50 (ug/ml) HSV"
  test value: ">10 µg/mL"
- compound: "O=C(Nc1ccc(NC(=S)NCCOc2cccc(Cl)c2)cc1)c1ccco1"
  measured endpoint: "IC50 (ug/ml) HSV"
  test value: "8 µg/mL"
- compound: "O=C(Nc1ccc(NC(=S)NCc2cc(C(F)(F)F)ccc2F)cc1)c1csnn1"
  measured endpoint: "IC50 (ug/ml) HSV"
  test value: ">10 µg/mL"
- compound: "O=C(Nc1ccc(NC(=S)NCCc2ccc(F)cc2)cc1)c1ccco1"
  measured endpoint: "IC50 (ug/ml) HSV"
  test value: ">10 µg/mL"
- compound: "CCC(C)Cc1cc(NC(=S)Nc2ccc(NC(=O)c3csnn3)cc2)cc(C(F)(F)F)c1 (stereo not drawn)"
  measured endpoint: "IC50 (ug/ml) HSV"
  test value: ">10 µg/mL"
- compound: "COc1ccc(CCNC(=S)Nc2ccc(NC(=O)c3csnn3)cc2)cc1OC"
  measured endpoint: "IC50 (ug/ml) HSV"
  test value: ">10 µg/mL"
- compound: "O=C(Nc1ccc(NC(=S)Nc2ccc(Cl)c(C(F)(F)F)c2)cc1)c1ccco1"
  measured endpoint: "IC50 (ug/ml) HSV"
  test value: ">10 µg/mL"
- compound: "COc1cc(OC)c(NC(=S)Nc2ccc(NC(=O)c3occc3C)cc2)cc1Cl"
  measured endpoint: "IC50 (ug/ml) HSV"
  test value: "10 µg/mL"

Now examine the next entry.
Q: What value of IC50 (ug/ml) HSV on HSV-1 does `O=C(Nc1ccc(NC(=S)NCCOc2ccc(Br)cc2)cc1)c1ccco1` have?
Ans: 7 µg/mL

###

# System: VZV strain Ellen
# test name: VZV Antiviral (ELISA) assay
# Type: cell-based
# reported conditions: VZV strain Ellen in HFF cells
measured endpoint: IC50 (ug/ml) VZV

See these solved cases before continuing.
- compound: "O=C(Nc1ccc(NC(=S)Nc2ccc3[nH]ncc3c2)cc1)c1ccco1"
  IC50 (ug/ml) VZV: ">10 µg/mL"
- compound: "O=C(Nc1ccc(NC(=S)Nc2ccc(I)c(C(F)(F)F)c2)cc1)c1csnn1"
  IC50 (ug/ml) VZV: ">10 µg/mL"
- compound: "Cc1cccc(C(C)NC(=S)Nc2ccc(NC(=O)c3cscn3)cc2)c1 (stereo not drawn)"
  IC50 (ug/ml) VZV: "3.60 µg/mL"

// for each compound below, give its IC50 (ug/ml) VZV
1. CC1CCCCN1CC(=O)Nc1ccc(NC(=S)Nc2ccc(NC(=O)c3ccco3)cc2)cc1Cl (stereo not drawn)
2. CC(NC(=S)Nc1ccc(NC(=O)c2cscn2)cc1)c1ccc(F)cc1Cl (stereo not drawn)
3. COc1cc(OC)c(NC(=S)Nc2ccc(NC(=O)c3ccccn3)cc2)cc1Cl
4. CN(C)c1ccc(CNC(=S)Nc2ccc(NC(=O)c3csnn3)cc2)cc1C(F)(F)F

Ans:
1. 0.7 µg/mL
2. >7.5 µg/mL
3. >10 µg/mL
4. >10 µg/mL

// for each compound below, give its IC50 (ug/ml) VZV
1. CN(C)c1ccc(NC(=S)Nc2ccc(NC(=O)c3ccccn3)cc2)cc1Cl
2. CC(NC(=S)Nc1ccc(NC(=O)c2csnn2)cc1)c1ccccc1 (stereo not drawn)

Ans:
[">10 µg/mL", "0.36 µg/mL"]

###

Answer each item with its documented IC50 (ug/ml) HSV.
# Test system: HSV-1
# test name: HSV Antiviral (ELISA) assay
# Format: cell-based
# reported conditions: HSV-1 in Vero cells

See these solved cases before continuing.
- mol smiles: "O=C(Nc1ccc(NC(=S)NCCc2ccc([N+](=O)[O-])cc2)cc1)c1csnn1"
  system tested: "HSV-1"
  test value: ">10 µg/mL"
- mol smiles: "C[C@H](NC(=S)Nc1ccc(NC(=O)c2cscn2)nc1)c1cc(C(F)(F)F)cc(C(F)(F)F)c1"
  system tested: "HSV-1"
  test value: ">10 µg/mL"
- mol smiles: "O=C(CN1CCCC1)Nc1ccc(NC(=S)Nc2ccc(NC(=O)c3ccco3)cc2)cc1Cl"
  system tested: "HSV-1"
  test value: ">10 µg/mL"

Now examine the next entry.
Q: Field request: IC50 (ug/ml) HSV | item: `COc1cc(OC)c(NC(=S)Nc2ccc(NC(=O)c3ccc(Br)o3)cc2)cc1Cl`
Ans: 3 µg/mL

###

# System: VZV strain Ellen
# test name: VZV Antiviral (ELISA) assay
# Assay type: cell-based
# reported conditions: VZV strain Ellen in HFF cells
Answer each item with its documented IC50 (ug/ml) VZV.

See these solved cases before continuing.
- molecule: "CN(C)c1cc(Cl)cc(NC(=S)Nc2ccc(NC(=O)c3csnn3)cc2)c1 [Example 522]"
  measured endpoint: "IC50 (ug/ml) VZV"
  test value: ">10 µg/mL"
- molecule: "COc1cc(OC)c(NC(=S)Nc2ccc(NC(=O)c3cc(Br)co3)cc2)cc1Cl [Example 169]"
  measured endpoint: "IC50 (ug/ml) VZV"
  test value: ">10 µg/mL"
- molecule: "O=C(Nc1ccc(NC(=S)NCc2ccc(Cl)c(Cl)c2)cc1)c1ccco1 [Example 545]"
  measured endpoint: "IC50 (ug/ml) VZV"
  test value: "7 µg/mL"

// for each molecule below, give its IC50 (ug/ml) VZV
1. COc1cc(OC)c(NC(=S)Nc2ccc(NC(=O)c3cnns3)cc2)cc1Cl [Example 323]
2. COc1cc(OC)c(NC(=S)Nc2ccc(NC(=O)c3nnsc3C)cc2)cc1Cl [Example 279]
3. O=C(Nc1ccc(NC(=S)Nc2ccc(Cl)c(C(F)(F)F)c2)cc1)c1ccccn1 [Example 379]
4. COc1cc(OC)c(NC(=S)Nc2ccc(NC(=O)c3ccc(Br)o3)cc2)cc1Cl [Example 168]
5. CC(C)(NC(=S)Nc1ccc(NC(=O)c2csnn2)cc1)c1cc(C(F)(F)F)cc(C(F)(F)F)c1 [Example 861]
6. CC(=O)Nc1ccc(NC(=S)Nc2ccc(NC(=O)c3ccco3)cc2)cc1Cl [Example 409]
7. CN(C)CC(=O)Nc1ccc(NC(=S)Nc2ccc(NC(=O)c3ccco3)cc2)cc1Cl [Example 361]
8. COc1cc(OC)c(NC(=S)Nc2ccc(NC(=O)c3cccn3C)cc2)cc1Cl [Example 147]

Ans:
[">10 µg/mL", ">10 µg/mL", ">10 µg/mL", ">10 µg/mL", ">7.5 µg/mL", ">10 µg/mL", ">10 µg/mL", ">10 µg/mL"]

// for each molecule below, give its IC50 (ug/ml) VZV
1. COc1cc(OC)c(NC(=S)Nc2ccc(NC(=O)c3ccc(C)s3)cc2)cc1Cl [Example 145]
2. COc1cc(OC)c(NC(=S)Nc2ccc(NC(=O)c3ccco3)cc2)cc1Cl [Example 170]
3. CN(c1ccc(NC(=S)Nc2ccc(NC(=O)c3ccco3)cc2)cc1Cl)C1CCN(Cc2ccccc2)C1 (stereo not shown) [Example 331]
4. O=C(Nc1ccc(NC(=S)NCCc2cc(C(F)(F)F)cc(C(F)(F)F)c2)cc1)c1ccco1 [Example 614]
5. O=C(Nc1ccc(NC(=S)Nc2cc(Br)cc(C(F)(F)F)c2)cc1)c1csnn1 [Example 532]
6. CN(C)c1c(Cl)cccc1NC(=S)Nc1ccc(NC(=O)c2ccco2)cc1 [Example 505]
7. O=C(Nc1ccc(CNC(=S)Nc2cc(Cl)cc(Cl)c2)cc1)c1csnn1 [Example 635]

Ans:
>15 µg/mL
>10 µg/mL
5 µg/mL
7 µg/mL
6 µg/mL
8 µg/mL
4 µg/mL
